- targetOrTestSystem: UniProt:A0A0H2YQR1
- testMethodNotes: biochemical
- conditionsUsed: K i ^app
measuredMetric: pKi
Scale for pKi: -log10 of concentration given in mol/L; no unit attached.

Problem: # returns recorded pKi (system: UniProt:A0A0H2YQR1) for CC(C)=CCC/C(C)=C/Cc1c(O)cc2c(c1O)C(=O)CC(c1ccc(O)c(O)c1)O2 (stereo not shown)
Solution: 7.19

* * *

- targetOrTestSystem: Cp-NanI (Clostridium perfringens, UniProt A0A0H2YQR1)
- Sequence (A0A0H2YQR1 243-694 limits assumed): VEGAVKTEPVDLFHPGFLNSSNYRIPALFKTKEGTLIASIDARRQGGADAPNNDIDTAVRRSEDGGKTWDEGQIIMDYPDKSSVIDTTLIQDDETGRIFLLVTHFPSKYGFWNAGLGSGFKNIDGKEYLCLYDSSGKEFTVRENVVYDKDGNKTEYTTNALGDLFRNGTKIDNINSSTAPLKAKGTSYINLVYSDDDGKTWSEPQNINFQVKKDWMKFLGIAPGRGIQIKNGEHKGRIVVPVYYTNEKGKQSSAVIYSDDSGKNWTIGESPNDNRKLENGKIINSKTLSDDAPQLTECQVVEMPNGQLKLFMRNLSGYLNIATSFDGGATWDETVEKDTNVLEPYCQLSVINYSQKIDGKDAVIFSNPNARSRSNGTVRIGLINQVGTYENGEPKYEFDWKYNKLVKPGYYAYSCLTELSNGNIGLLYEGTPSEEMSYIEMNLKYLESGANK
- testMethodNotes: biochemical
Please provide measured IC50 for the entries that follow.
Kindly answer with a numeric value in µM, unit omitted.

Problem: What measured IC50 goes with COc1ccc(C2CC(=O)c3c(cc(O)c(C/C=C(\C)CCC=C(C)C)c3O)O2)cc1O (stereo not shown) ?
Solution: 12.9

Problem: So what's the measured IC50 for this one? CC(C)=CCC/C(C)=C/Cc1c(O)cc2c(c1O)C(=O)CC(c1ccc(O)c(O)c1)O2 (stereo not shown)
Solution: 0.11

Problem: Need IC50 of `CC(C)=CCC/C(C)=C/Cc1c(O)cc2c(c1O)C(=O)C[C@@H](c1ccc(O)cc1)O2` , thanks.
Solution: 6.1

Problem: Give the measured IC50 of O=C1C[C@@H](c2ccc(O)c(O)c2)Oc2cc(O)cc(O)c21 [Eriodictyol, reference compound] .
Solution: 16.4
